Study system: Human immunodeficiency virus type 1 integrase (Human immunodeficiency virus 1)
Experiment: Inhibition of the 3'-processing activity of HIV-1 integrase
pIC50: −log10 of the molar value.
Label TRUE when pIC50 is at or above 4; otherwise label FALSE.

O=C1Sc2ccc(Cl)cc2C(=O)N2C[S+]([O-])CC12 (configuration not stated) : FALSE
COc1cc2c(cc1OC)C(=O)N1CCCC1C(=O)S2 (configuration not stated) : FALSE
COc1cc2c(cc1OC)C(=O)N1CSCC1C(=O)S2 (configuration not stated) : FALSE
O=C1Sc2ccccc2C(=O)N2CSCC12 (configuration not stated) : FALSE
O=C1Sc2ccccc2Cn2cccc21 : FALSE

Exam item: decide whether the reported pIC50 for O=C1Sc2ccccc2C(=O)N2CCCCC12 (configuration not stated) is at least 4.
FALSE

Hi team, for CC(=O)OC1Sc2ccccc2C(=O)N2CCCC12 (configuration not stated) , is the recorded pIC50 at or above 4?
FALSE

Check the entry O=C1Sc2ccccc2C(=O)N2COCC12 (configuration not stated) : does pIC50 equal or exceed 4?
FALSE

Test whether the compound Cc1ccc2c(c1)C(=O)N1CCSC1C(=O)S2 (configuration not stated) records pIC50 of 4 or higher.
TRUE

Quick check: does O=C1Sc2ccc(Cl)cc2C(=O)N2CSCC12 (configuration not stated) have pIC50 greater than or equal to 4?
FALSE

Entry Cc1ccc2c(c1)C(=O)N1CC[S+]([O-])C1C(=O)S2 (configuration not stated) : is its pIC50 no less than 4?
FALSE

Is it the case that COc1ccc2c(c1)C(=O)N1CSCC1C(=O)S2 (configuration not stated) has pIC50 reaching or exceeding 4?
FALSE

Decide: pIC50 of O=C1c2ccccc2SC(O)C2CCCN12 (configuration not stated) >= 4?
FALSE

###

Catalogue of molecules with associated pIC50
Study system: Human immunodeficiency virus type 1 integrase (Human immunodeficiency virus 1, UniProt Q7ZJM1)
Sequence (Q7ZJM1 whole entry): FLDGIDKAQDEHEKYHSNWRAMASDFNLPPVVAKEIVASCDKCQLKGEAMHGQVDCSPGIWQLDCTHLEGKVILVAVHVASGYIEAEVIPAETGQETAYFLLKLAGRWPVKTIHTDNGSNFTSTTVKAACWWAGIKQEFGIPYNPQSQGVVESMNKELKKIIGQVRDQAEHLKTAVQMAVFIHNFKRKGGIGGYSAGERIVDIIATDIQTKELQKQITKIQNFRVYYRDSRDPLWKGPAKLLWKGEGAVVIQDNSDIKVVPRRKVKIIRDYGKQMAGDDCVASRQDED
Experiment: Inhibition of the 3'-end joining activity of HIV-1 integrase
Hey, just a heads up that pIC50 is the negative log base 10 of the concentration in molar.

O=C1Sc2ccc(Br)cc2C(=O)N2CCSC12 (centres undefined) : 4.32

// sample O=C1Sc2ccc(Cl)cc2C(=O)N2C[S+]([O-])CC12 (centres undefined) , its pIC50 was 3.55

###

Study system: Human immunodeficiency virus type 1 integrase (Human immunodeficiency virus 1, UniProt Q7ZJM1)
Experiment: Inhibition of the 3'-processing activity of HIV-1 integrase
Simple rule here: IC50 less than 80 µM is Y, otherwise N.

Solved cases (3 shown):
COc1ccc2c(c1)C(=O)N1C[S+]([O-])CC1C(=O)S2 (centres undefined) : N
O=C1Sc2cc([N+](=O)[O-])ccc2C(=O)N2CSCC12 (centres undefined) : N
O=C1Sc2cc3ccccc3cc2C(=O)N2CCSC12 (centres undefined) : Y

As a next step, examine the compound that follows.
# TODO verify IC50 < 80 µM strictly for this compound: COc1cc2c(cc1OC)C(=O)N1CCCC1CS2 (centres undefined)
N

###

# IC50 per record follows
Study system: Human immunodeficiency virus type 1 integrase (Human immunodeficiency virus 1, UniProt Q7ZJM1)
Experiment: Inhibition of the 3'-processing activity of HIV-1 integrase
The response must be a number in µM with no trailing unit.

Consider the following illustrative entries.
O=C1Sc2ccccc2C(=O)N2CCSC12 (stereo not given) : 110
O=C1c2ccccc2SCC2CSC(c3ccccc3)N12 (stereo not given) : 372
O=C1Sc2ccc(Br)cc2C(=O)N2CSCC12 (stereo not given) : 87
O=C1Sc2ccc(Br)cc2C(=O)N2CCSC12 (stereo not given) : 58
Cc1ccc2c(c1)C(=O)N1CSCC1C(=O)S2 (stereo not given) : 52

// below: IC50 requested for another compound
response.value for O=C1Sc2ccc(Cl)cc2C(=O)N2CCSC12 (stereo not given) (field: IC50) = 151

These entries and their values trace back to ChEMBL document CHEMBL1132359.
